Reference source for all entries: PubChem BioAssay AID1159580

Each record here notes measured normalized growth.
# ASSAY SUMMARY: chemical genetic growth profiling, strain panel (AID 1159580);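 further: tested at 20 µM; growth read once vehicle control cultures reached saturation at 30 °C; 1 = growth at the plate median or of vehicle wells; lower values mean less growth of the strain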
# CONDITION: S. cerevisiae deletion strains, growth OD, locus YCL011C, strain gbp2, active compounds read low
In all, about 5,500 compounds went through this assay and about 2,000 (36%) were called active. Another 18% or so got no clear call; they are omitted. The list shows a part of the results.
Enter a number only.

Here is how some molecules turned out for normalized growth.
{"MOLECULE": "NC(=NCCCCCCN=C(N)N=C(N)Nc1ccc(Cl)cc1)N=C(N)Nc1ccc(Cl)cc1", "MEASURED RESULT": 0.0584}
{"MOLECULE": "COc1ccc(-c2c(O)c3c(OC)c4c(cc3oc2=O)OC(C)(C)C=C4)cc1", "MEASURED RESULT": 0.957}
{"MOLECULE": "CC(=O)c1ccc[nH]1", "MEASURED RESULT": 1}
{"MOLECULE": "CNC(=O)N(C)c1nnc(C(C)(C)C)s1", "MEASURED RESULT": 0.985}
{"MOLECULE": "COc1ccc(CC(=O)c2ccc(O)cc2O)cc1", "MEASURED RESULT": 0.973}

Item under review: "CC(=O)CCCCn1c(=O)c2c(ncn2C)n(C)c1=O" . Reported normalized growth?
1.01

Now the molecule "O=c1c(O)c(-c2ccccc2)oc2ccccc12"
0.51

Quick one: "COc1ccc([C@@H](C)C(=O)c2ccc(O)cc2O)cc1"
0.987

Same question for CC(=O)OC1CCC2(O)CC1(C)CCC1C2CC1(C)C (stereo not given) please.
1.03

Further, for "CC1=C(C(=O)O)N2C(=O)[C@@H](NC(=O)[C@@H](N)c3ccc(O)cc3)[C@H]2SC1" ?
1.01

Next: "COc1cc(Cc2cnc(N)nc2N)cc(OC)c1OC"
1.02

Would you kindly repeat that for ClC1C(Cl)C(Cl)C(Cl)C(Cl)C1Cl (stereo not given) ?
0.931

Moving on to "CCC[C@@H]1C[C@@H](C(=O)N[C@H]([C@H]2O[C@H](SC)[C@H](O)[C@@H](O)[C@H]2O)[C@H](C)O)N(C)C1"
0.997

"CON" , same question.
1.02

Please answer likewise for "O=C(CCc1ccc(O)cc1)c1c(O)cc(O)cc1O"
1.02

What would you report for "Cn1cnc2c1c(=O)[nH]c(=O)n2C" ?
0.978

###

# ASSAY SUMMARY: chemical genetic growth profiling, strain panel (AID 1159580)
# CONDITION: S. cerevisiae deletion strains, growth OD, locus YNR052C, strain pop2, active compounds read low
Screen size: about 5,500 compounds; about 2,000 (36%) were called active. Another 18% or so got no clear call; they are omitted. The list shows a part of the results.
Property: normalized growth; scope: individual compounds
// keep it numeric: no unit symbol after the value

{"COMPOUND": "CN1C(=O)CC[C@H]1c1cccnc1", "normalized growth": 1.02}
{"COMPOUND": "COc1ccc(-c2c(OC)c3c(OC)c4c(cc3oc2=O)OC(C)(C)C=C4)cc1", "normalized growth": 1.02}
{"COMPOUND": "O=C1C(=O)c2ccccc2C(O)=C1C1CCC(c2ccc(Cl)cc2)CC1 (stereo not given)", "normalized growth": 0.982}
{"COMPOUND": "CC(=O)Oc1c(C)c(C)c2c(c1C)CCC(C)(CCCC(C)CCCC(C)CCCC(C)C)O2 (stereo not given)", "normalized growth": 0.984}

Please turn your attention to the following entry.
Return reported normalized growth; argument: "COc1cc([C@@H]2c3cc4c(cc3[C@H](O)[C@H]3COC(=O)[C@H]23)OCO4)cc(OC)c1OC"
1.01

###

Form field: normalized growth (one value per entry).
# ASSAY SUMMARY: chemical genetic growth profiling, strain panel (AID 1159580);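 further: tested at 20 µM; growth read once vehicle control cultures reached saturation at 30 °C; 1 = growth at the plate median or of vehicle wells; lower values mean less growth of the strain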
# CONDITION: S. cerevisiae deletion strains, growth OD, locus YFL009W, strain cdc4, active compounds read low
About 2,000 (36%) of roughly 5,500 compounds were called active. About 18% were inconclusive and are not listed. The list shows a part of the results.

The cases that follow already have their normalized growth on record.
{"COMPOUND": "CC(C)c1cccc(C(C)C)c1OC(=O)NC(=O)c1c(Cl)cccc1Cl", "normalized growth": "0.99 (inactive)"}
{"COMPOUND": "O=C(Nc1cc(Cl)cc(Cl)c1)c1cc(Cl)ccc1O", "normalized growth": "0.924 (inactive)"}

// lookup normalized growth for "COC(=S)Nc1cc(Cl)cc(Cl)c1"
0.912 (inactive)

How about this compound: "Cc1oc(C(C)(C)C)cc1-c1cc(NC(=O)c2ccccc2)n[nH]1"
0.951 (inactive)

Also "Cc1cc(C)c2cc(C(=O)NCCNc3ccc(C(F)(F)F)cn3)[nH]c2c1" , if possible.
0.991 (inactive)

And the next one, C=CCC1C(=O)N(S(=O)(=O)c2ccc(Cl)cc2)N=C1CCC (stereo unspecified) ?
0.993 (inactive)

Subsequent entry: "FC(F)(F)c1c2c(nc3cc(-c4ccco4)nn13)CCC2"
0.968 (inactive)

Also, "O=C(Nc1ccc(F)cc1F)c1cc(Cl)ccc1O" please.
0.923 (inactive)

Same read-out for "CC(C)OC(=O)Nc1cc(Cl)cc(Cl)c1" ?
0.96 (inactive)

Same question for "CC(C)(C)c1ccc(-c2cc(NC(=O)c3ccc(Cl)cc3)n[nH]2)cc1" please.
1.02 (inactive)

Follow-up entry: "N/C(=N/OCc1c(F)cccc1Cl)c1ccc(Cl)cc1"
0.913 (inactive)

###

Measured normalized growth values are reported for all entries that follow.
# ASSAY SUMMARY: chemical genetic growth profiling, strain panel (AID 1159580);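 further: tested at 20 µM; growth read once vehicle control cultures reached saturation at 30 °C; 1 = growth at the plate median or of vehicle wells; lower values mean less growth of the strain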
# CONDITION: S. cerevisiae deletion strains, growth OD, locus YKL068W, active compounds read low
Out of some 5,500 compounds screened, about 2,000 (36%) were called active. Another 18% or so got no clear call; they are omitted. Some of the results follow.
Write the value as a bare number.

Guide cases for normalized growth, answers given:
{"MOLECULE": "O[C@H]1[C@H](O)[C@@H](O)C2OC[C@H]1O2", "MEASURED RESULT": 0.982}
{"MOLECULE": "O=C(/C=C/c1ccccc1)c1c(O)cc(O)cc1O", "MEASURED RESULT": 1}
{"MOLECULE": "CNC(C)[C@@H]1CC[C@@H](N)[C@@H](OC2[C@@H](N)C[C@@H](N)[C@H](OC3OC[C@](C)(O)[C@H](NC)[C@H]3O)[C@H]2O)O1 (some centres undefined)", "MEASURED RESULT": 1.01}

May I ask what normalized growth has been recorded for COC(=O)CC1C(C)(C)C(=O)C2CC3(O)C4=CC(=O)OC(c5ccoc5)C4(C)CCC3C1(C)C2=O (centres undefined) ?
0.993

Do the same for "O=C(Nc1ccc([N+](=O)[O-])cc1Cl)c1cc(Cl)ccc1O" please
1

For C[C@H]1C(=O)CCC2[C@]3(C)CC[C@@]4(C)C5CC(C)(C)CC[C@]5(C)CC[C@]4(C)C3CC[C@@]21C (some centres undefined) then?
1.02

###

# ASSAY SUMMARY: chemical genetic growth profiling, strain panel (AID 1159580);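 further: tested at 20 µM; growth read once vehicle control cultures reached saturation at 30 °C; 1 = growth at the plate median or of vehicle wells; lower values mean less growth of the strain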
# CONDITION: S. cerevisiae deletion strains, growth OD, locus YFR003C, strain YPI1, active compounds read low
About 2,000 (36%) of roughly 5,500 compounds were called active. Inconclusive results (about 18%) are left out. This is one part of the list.
MEASURED PARAMETER: normalized growth
Number, no unit, nothing else.

Previously resolved entries follow.
{"COMPOUND": "CCOC(=O)C(NC(=O)c1cccc(Cl)c1)(Nc1nc2ccccc2s1)C(F)(F)F (stereo not given)", "MEASURED PARAMETER": "normalized growth", "MEASURED RESULT": 0.957}
{"COMPOUND": "CC1SC(c2cccnc2)N(c2ccc(F)cc2F)C1=O (stereo not given)", "MEASURED PARAMETER": "normalized growth", "MEASURED RESULT": 0.991}
{"COMPOUND": "Cc1csc2ncnc(N3CCN(C(=O)Nc4ccc(SC(F)(F)F)cc4)CC3)c12", "MEASURED PARAMETER": "normalized growth", "MEASURED RESULT": 1.01}
{"COMPOUND": "Cc1ccc2nc3c(nc2c1)-c1ccccc1C3=O", "MEASURED PARAMETER": "normalized growth", "MEASURED RESULT": 0.927}
{"COMPOUND": "COC(=O)c1sccc1S(=O)(=O)Nc1cc(C(F)(F)F)cc(C(F)(F)F)c1", "MEASURED PARAMETER": "normalized growth", "MEASURED RESULT": 0.974}
{"COMPOUND": "CCOC(=O)c1cnc(-c2ccccn2)[nH]c1=O", "MEASURED PARAMETER": "normalized growth", "MEASURED RESULT": 0.947}
{"COMPOUND": "Cc1csc2c(N3CCN(C(=S)Nc4ccc(C(F)(F)F)cc4)CC3)ncnc12", "MEASURED PARAMETER": "normalized growth", "MEASURED RESULT": 0.992}
{"COMPOUND": "O=C(Nc1ccccc1Sc1ccc(C(F)(F)F)cc1[N+](=O)[O-])C(Cl)Cl", "MEASURED PARAMETER": "normalized growth", "MEASURED RESULT": 0.986}

Name the recorded normalized growth for "O=S(=O)(Nc1cc(C(F)(F)F)cc(C(F)(F)F)c1)c1ccc(Cl)s1" .
0.927

Thanks! And "Cc1csc2ncnc(N3CCN(C(=S)Nc4ccc(C(F)(F)F)cc4)CC3)c12" ?
0.996
